# system-under-test: CDK12/CycK (Homo sapiens, UniProt Q9NYV4)
# Sequence (Q9NYV4 whole entry): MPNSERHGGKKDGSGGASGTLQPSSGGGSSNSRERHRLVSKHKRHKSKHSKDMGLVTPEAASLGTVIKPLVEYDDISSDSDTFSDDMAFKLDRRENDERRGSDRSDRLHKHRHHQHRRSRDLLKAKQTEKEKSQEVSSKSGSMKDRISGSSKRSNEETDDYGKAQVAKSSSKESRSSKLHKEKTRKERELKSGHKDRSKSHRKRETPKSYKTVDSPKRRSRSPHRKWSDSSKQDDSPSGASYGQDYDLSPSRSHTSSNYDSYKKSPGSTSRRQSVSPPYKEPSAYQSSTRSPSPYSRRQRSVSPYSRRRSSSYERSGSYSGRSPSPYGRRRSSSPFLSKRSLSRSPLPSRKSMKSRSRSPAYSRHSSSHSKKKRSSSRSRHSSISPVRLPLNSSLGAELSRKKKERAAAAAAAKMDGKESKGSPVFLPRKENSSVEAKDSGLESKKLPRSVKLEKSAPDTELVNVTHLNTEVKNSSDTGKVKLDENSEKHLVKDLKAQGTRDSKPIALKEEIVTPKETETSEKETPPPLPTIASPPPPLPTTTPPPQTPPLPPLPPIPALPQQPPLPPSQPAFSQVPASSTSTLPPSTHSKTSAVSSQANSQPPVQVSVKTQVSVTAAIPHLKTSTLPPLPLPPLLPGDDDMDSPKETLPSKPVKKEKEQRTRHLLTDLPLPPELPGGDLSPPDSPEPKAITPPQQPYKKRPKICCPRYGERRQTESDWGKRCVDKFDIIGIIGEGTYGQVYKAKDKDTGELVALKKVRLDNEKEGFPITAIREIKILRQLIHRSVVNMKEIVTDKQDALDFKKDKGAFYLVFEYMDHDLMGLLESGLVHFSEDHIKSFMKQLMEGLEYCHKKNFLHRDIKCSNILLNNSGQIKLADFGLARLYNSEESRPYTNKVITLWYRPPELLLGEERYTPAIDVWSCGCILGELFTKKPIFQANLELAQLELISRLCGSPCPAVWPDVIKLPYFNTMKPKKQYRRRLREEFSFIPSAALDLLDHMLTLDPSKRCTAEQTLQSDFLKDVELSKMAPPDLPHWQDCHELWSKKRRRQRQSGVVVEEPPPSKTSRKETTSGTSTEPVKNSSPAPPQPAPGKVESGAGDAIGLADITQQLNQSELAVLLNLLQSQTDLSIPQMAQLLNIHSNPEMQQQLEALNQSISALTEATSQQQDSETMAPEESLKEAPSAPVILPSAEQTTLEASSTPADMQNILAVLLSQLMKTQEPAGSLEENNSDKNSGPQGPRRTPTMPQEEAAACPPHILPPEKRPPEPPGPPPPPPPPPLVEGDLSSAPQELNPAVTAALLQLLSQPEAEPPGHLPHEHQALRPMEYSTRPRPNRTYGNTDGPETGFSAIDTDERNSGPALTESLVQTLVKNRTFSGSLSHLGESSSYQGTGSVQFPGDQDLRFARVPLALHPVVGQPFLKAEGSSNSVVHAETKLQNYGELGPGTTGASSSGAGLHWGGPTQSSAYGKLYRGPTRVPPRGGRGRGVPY
# Sequence (O75909 whole entry partner): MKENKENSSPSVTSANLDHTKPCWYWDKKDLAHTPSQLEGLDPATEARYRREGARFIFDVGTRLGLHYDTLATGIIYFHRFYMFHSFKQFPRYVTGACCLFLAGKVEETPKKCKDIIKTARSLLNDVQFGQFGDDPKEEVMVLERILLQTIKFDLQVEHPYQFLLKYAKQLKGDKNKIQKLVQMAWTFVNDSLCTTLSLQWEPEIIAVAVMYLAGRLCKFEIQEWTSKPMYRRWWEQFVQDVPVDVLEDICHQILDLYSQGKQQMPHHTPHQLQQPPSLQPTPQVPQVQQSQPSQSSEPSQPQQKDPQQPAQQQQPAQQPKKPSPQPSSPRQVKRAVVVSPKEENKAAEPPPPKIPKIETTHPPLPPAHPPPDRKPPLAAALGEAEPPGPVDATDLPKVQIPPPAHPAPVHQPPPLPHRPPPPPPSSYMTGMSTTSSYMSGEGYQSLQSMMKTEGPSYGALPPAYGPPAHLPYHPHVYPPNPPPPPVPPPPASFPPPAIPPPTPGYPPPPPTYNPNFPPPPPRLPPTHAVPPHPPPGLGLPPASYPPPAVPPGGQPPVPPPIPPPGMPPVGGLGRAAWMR
# test-description: Inhibition of CDK12 (ADP-Glo kinase assay)
# measurement-setup: 60 nM CDK12/CycK, 30 minutes pre-incubation, 1 μM ATP, 0.5 μM RBER-IRStide substrate, 1 h at 25° C., read-out: CDK12/cyclin K IC50
pIC50: −log10 of the molar value.
measurement-label: pIC50

Asked: State the recorded pIC50 for this entry: O=C(NCCc1cc2c(-c3cnn4ncccc34)ccnc2[nH]1)[C@@H]1CCCN1S(=O)(=O)c1ccccc1
Given back: 6.00 to 7.00

Asked: Value lookup for pIC50; key = Cc1cnc2[nH]ccc2c1-c1cnn2ncccc12
Given back: 4.52 to 6.00

Asked: Requested read-out: pIC50. Entry: C=CC(=O)N1CCC[C@H]1C(=O)N1CCN(Cc2cc3c(-c4cnn5ncccc45)ccnc3[nH]2)CC1
Given back: 4.52 to 6.00

Asked: Requested field: pIC50. Item: CN1CCN(CC(=O)NCc2cc3c(-c4cnn5ncccc45)ccnc3[nH]2)CC1
Given back: 4.52 to 6.00

Asked: Quick one: pIC50 for NCCc1cc2c(-c3cccnc3)ccnc2[nH]1 ?
Given back: 4.52 to 6.00

Asked: // returns reported pIC50 for input Cc1cc2c(-c3cnn4ncccc34)ccnc2[nH]1
Given back: 6.00 to 7.00

Asked: Look up pIC50 for this compound: C=CC(=O)N1CCC[C@H]1C(=O)N1CCC(c2cc3c(-c4cnn5ncccc45)ccnc3[nH]2)C1 (stereo partly shown)
Given back: > 7.00

Asked: Fill in the blank: the reported pIC50 of O=C(CCl)Nc1ccc(C(=O)N2CCC(c3cc4c(-c5cnn6ncccc56)ccnc4[nH]3)C2)cc1 (stereo not shown) is ____.
Given back: > 7.00

Asked: Endpoint output: pIC50 of CC(=O)N1CCO[C@H](C(=O)NCCc2cc3c(-c4cnn5ncccc45)ccnc3[nH]2)C1 (single isomer, unassigned) . Value?
Given back: > 7.00

Asked: Given the entry C=CC(=O)N1CCCC[C@H]1C(=O)NCCc1cc2c(-c3cnn4ncccc34)ccnc2[nH]1 , report its measured pIC50.
Given back: > 7.00

Asked: State the recorded pIC50 for this entry: CN(C)C/C=C/C(=O)Nc1cncc(C(=O)N2CC[C@H](c3cc4c(-c5cnn6ncccc56)ccnc4[nH]3)C2)c1
Given back: > 7.00

Asked: Quick one: pIC50 for C=CC(=O)N1CCC[C@H]1C(=O)N1CC[C@@H](c2cc3c(-c4cnn5ncccc45)ccnc3[nH]2)C1 ?
Given back: 6.00 to 7.00

Asked: Which measured pIC50 value corresponds to C=CC(=O)N1CCOC[C@@H]1C(=O)NCCc1cc2c(-c3cnn4ncccc34)ccnc2[nH]1 ?
Given back: > 7.00

Asked: Consider the compound shown here: C=CC(=O)N1CCC[C@@H]1C(=O)N(C)CCc1cc2c(-c3cnn4ncccc34)ccnc2[nH]1 What is its recorded pIC50?
Given back: 4.52 to 6.00

Asked: Looking for the measured pIC50 of C[C@@H](Cl)C(=O)N1CCC[C@@H]1C(=O)N1CCC(c2cc3c(-c4cnn5ncccc45)ccnc3[nH]2)C1 (stereo partly shown) , can you help?
Given back: 6.00 to 7.00

Asked: Given C=CC(=O)NCC1CCN(Cc2cc3c(-c4cnn5ncccc45)ccnc3[nH]2)C1 (stereo not shown) , state its recorded pIC50.
Given back: 4.52 to 6.00
